Give measured Response for each item. Keep answers brief.
- system: T1, Rhesus macaque CD4-HIS (Acro Biosystems, Cat. CD4-C52H7) (rhesus macaque, UniProt P16003 26-390)
- T1 construct: Bought reagent; also called Rhesus CD4; rhesus CD4-HIS; not shown: His tag
- T1 sequence (P16003 26-390 limits assumed): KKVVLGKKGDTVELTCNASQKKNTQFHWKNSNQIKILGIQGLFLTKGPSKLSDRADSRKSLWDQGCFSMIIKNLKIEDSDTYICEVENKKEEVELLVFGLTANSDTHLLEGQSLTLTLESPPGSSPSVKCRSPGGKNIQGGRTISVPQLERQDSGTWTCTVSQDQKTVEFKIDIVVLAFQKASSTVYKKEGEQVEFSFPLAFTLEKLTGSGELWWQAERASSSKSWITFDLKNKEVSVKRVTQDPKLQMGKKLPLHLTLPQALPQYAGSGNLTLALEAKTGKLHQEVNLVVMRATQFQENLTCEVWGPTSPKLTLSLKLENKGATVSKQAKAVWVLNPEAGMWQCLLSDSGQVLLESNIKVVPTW
- test_protocol: BLI Octet, mAb on anti-mouse Fc sensor, rhesus CD4-HIS 25-100 nM, 1:1 global fit;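 also: purified antibodies captured at 10 µg/mL, rhesus CD4 analyte run as a three-concentration serial dilution, irrelevant antibody as reference control, one kinetic constant set per antibody from global fitting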
One number for each entry.

Previously resolved entries follow.
75110_01J17A (antibody, V domains shown, Tested as antibody purified from AlivaMab Mouse hybridoma supernatant (captured by anti-mouse IgG Fc)) VH: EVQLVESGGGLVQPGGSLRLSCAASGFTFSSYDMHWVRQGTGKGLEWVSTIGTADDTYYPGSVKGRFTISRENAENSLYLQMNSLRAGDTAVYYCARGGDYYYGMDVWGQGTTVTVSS VL: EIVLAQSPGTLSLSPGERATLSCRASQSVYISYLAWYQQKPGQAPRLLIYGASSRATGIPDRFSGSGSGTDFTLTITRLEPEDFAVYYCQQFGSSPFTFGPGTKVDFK : 0.05
75110_04H17A (antibody, V domains shown, Tested as antibody purified from AlivaMab Mouse hybridoma supernatant (captured by anti-mouse IgG Fc)) VH: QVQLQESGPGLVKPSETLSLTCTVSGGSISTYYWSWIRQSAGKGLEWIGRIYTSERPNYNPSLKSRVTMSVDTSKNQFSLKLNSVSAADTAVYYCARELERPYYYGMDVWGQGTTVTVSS VL: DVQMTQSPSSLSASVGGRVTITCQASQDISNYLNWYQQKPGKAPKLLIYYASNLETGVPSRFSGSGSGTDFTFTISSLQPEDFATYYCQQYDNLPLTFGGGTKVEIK : 0.18

Now for a further binder.
Supply reported Response belonging to this binder: 75110_01D24A (antibody, V domains shown, Tested as antibody purified from AlivaMab Mouse hybridoma supernatant (captured by anti-mouse IgG Fc)) VH: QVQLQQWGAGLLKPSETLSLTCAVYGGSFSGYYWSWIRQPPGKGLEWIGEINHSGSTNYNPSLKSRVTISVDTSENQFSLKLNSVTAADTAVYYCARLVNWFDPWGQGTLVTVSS VL: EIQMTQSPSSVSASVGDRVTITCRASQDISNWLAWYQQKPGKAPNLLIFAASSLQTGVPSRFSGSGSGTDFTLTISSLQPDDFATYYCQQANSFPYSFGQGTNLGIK 0.08
